Test system: OVCAR-8
Experiment: NCI tumour cell line growth inhibition, 48 h
Activity calls are given as the source filed them. Rule as the data show it: active = GI50 up to about 1.1 µM and inactive = higher.

| molecule | targetSystem | GI50 |
| --- | --- | --- |
| O=C(NN=C1NCCN1)c1ccco1 | OVCAR-8 | > 100 µM (inactive) |
| Cc1ccccc1NC(=N)Nc1ccccc1C | OVCAR-8 | > 100 µM (inactive) |
| O=C1c2ccccc2C(=O)N1NC1=NCCN1 | OVCAR-8 | > 100 µM (inactive) |
| CCN(CC)c1ccc2cc(C(=O)NCc3ccccc3)c(=N)oc2c1 | OVCAR-8 | 37.7 µM (inactive) |
| Cc1ccc(NC(=O)CC/C(CC(=O)c2ccc(Cl)cc2)=N\NC(=O)C(=O)NN)cc1C | OVCAR-8 | > 100 µM (inactive) |
| O=C1NC(=O)C2C3C=CC(C12)C1C2C(=O)NC(=O)C2C31 (configuration not stated) | OVCAR-8 | 203 µM (inactive) |
| C[C@]12CC[C@H]3[C@@H](CC=C4C[C@@H](N5CCCC5)CC[C@@]43C)[C@@H]1C[C@H](N1CCCCC1)[C@@H]2O | OVCAR-8 | > 100 µM (inactive) |

---

Listing of entries alongside the reported GI50.
System: MOLT-4
Test: NCI tumour cell line growth inhibition, 48 h
The source made the active and inactive calls. Cut-off read from the data, not from the text of the source: active = GI50 up to about 1.1 µM and inactive = higher.

| compound | targetSystem | GI50 |
| --- | --- | --- |
| CCOC(=O)C1=CC(C)(C(=O)OCC)Nc2c(nc(SC)[nH]c2=O)N1 (stereo unspecified) | MOLT-4 | > 10 µM (inactive) |
| CCOC(=O)C(NC(=O)C(CCCCNP(=O)(OCC)OCC)NC(=O)C(C)NC(C)=O)C(C)C (stereo unspecified) | MOLT-4 | > 100 µM (inactive) |
| CCOC(=O)NC1=C(N2CC2)C(=O)C(NC(=O)OCC)=C(N2CC2)C1=O | MOLT-4 | 1.38 µM (inactive) |
| COc1cccc(NC(=O)CSc2nnc(-c3ccc(NC(C)=O)cc3)o2)c1 | MOLT-4 | > 100 µM (inactive) |
| CCOCNC(=O)N(COCC)COCC | MOLT-4 | > 100 µM (inactive) |
| O=C(O)CC1OCC=C2CN3CCC45c6ccccc6NC4C1C2CC35 (stereo unspecified) | MOLT-4 | > 100 µM (inactive) |
| C=CCCCC1CCCNC1=O (stereo unspecified) | MOLT-4 | > 100 µM (inactive) |
| O=C(CSc1nnc(-c2ccccn2)s1)N/N=C/c1ccccc1 | MOLT-4 | 63.5 µM (inactive) |
| O=C1C(Br)=CC2([N+](=O)[O-])CCNC3=C(C4=NCCc5c[nH]c(c54)C3=O)C2=C1Br (stereo unspecified) | MOLT-4 | 1.14 µM (inactive) |
| O=c1[nH]nc(-c2ccccc2)n1-n1cccc1 | MOLT-4 | 35.6 µM (inactive) |
| Cc1cc2c3c(coc3c1-c1c(C)cc3c4c(coc14)C(=O)C(O)=C3C(C)C)C(=O)C(O)=C2C(C)C | MOLT-4 | 3.66 µM (inactive) |

---

System: SN12C
Assay: NCI tumour cell line growth inhibition, 48 h
Calls of active or inactive are those of the source. Rule as the data show it: active = GI50 up to about 1.1 µM and inactive = higher. Where a SMILES comes first, the peptide text is derived from it. [ ]: non-standard residue; d: D form. The star is where a group is joined. Hyp = O=C(O)[CH]1C[CH](O)CN1; Cbz = O=C(OCc1ccccc1)*
Outcomes: 1 = active, -1 = inactive

| compound | qualitativeLabel |
| --- | --- |
| COC(=O)C(CC(=O)Nc1ccc(C)cc1)C(=O)C(=O)Nc1ccccc1C(C)C (centres undefined) | -1 |
| CCOCNC(=O)N(COCC)COCC | -1 |
| O=c1cc(-c2ccccc2)c2cc3c(=O)ccoc3cc2o1 | -1 |
| COc1ccc(-n2c(=O)c3nc[nH]c3n(-c3ccc(OC)cc3)c2=S)cc1 | -1 |
| COc1ccc(C2Cc3cc(OC)c(OC)c(OC)c3C2=O)cc1 (centres undefined) | -1 |
| CCOP1(=O)C=CC(Cl)=C(C)C1 (centres undefined) | -1 |
| Cc1nc2ccccc2c(=O)n1Nc1ccc(C(=O)O)cc1 | -1 |
| NC(=O)CNC(=O)C1CC(O)CN1C(=O)C1CCCN1C(=O)OCc1ccccc1 (stereo not drawn) (Cbz-Pro-[Hyp]-Gly-NH2; configuration not given here) | -1 |
| C=CC[C@]12C=C(OC)[C@@H](O)[C@](OC)(C(c3cc(OC)c4c(c3)OCO4)[C@H]1C)[C@H]2OC(C)=O (some centres undefined) | -1 |
| NC1=NN(c2ccccc2)C(=O)C1/C(=N\NC(=O)c1cc2ccccc2cc1O)C(=O)Nc1cccc(C(F)(F)F)c1 (centres undefined) | -1 |
| COC(=O)Nc1nc2cc(NS(=O)(=O)c3cccs3)ccc2[nH]1 | -1 |
| CCCCCCCC(CC(=O)NC(CO)C(=O)NC(CO)CC(C)C)OC(=O)CC(CCCCCCC)OC(=O)CC(CCCCCCC)OC1OC(C)C(O)C(OC2OC(C)C(O)C(O)C2O)C1O (centres undefined) | -1 |
| COc1cc2c(cc1OCCN1C(=O)c3cccc4cccc(c34)C1=O)N=C[C@@H]1CCCN1C2=O | -1 |
| CCN(c1ccccc1)[C@H]1C(=O)N(c2ccc([N+](=O)[O-])cc2)[C@H]1c1ccc(OC)cc1 | -1 |
| N#C/C(=C(/S)Nc1ccccc1)c1nc2ccccc2[nH]1 | -1 |
| COc1ccc(OC)c([N+](=O)[O-])c1-c1nc2sc(Cl)cn2c1/C=N/N=C(N)N | -1 |
| CCNC1=C(NC(=O)CCl)C(=O)c2ccccc2C1=O | -1 |
| CC1OC1P(=O)(O)O (centres undefined) | -1 |
| COc1ccc(C(c2c[nH]c3ccc(Br)cc23)c2c[nH]c3ccc(Br)cc23)cc1 | 1 |
| CCCCc1ccc(Nc2nc(S)c3[nH]cnc3n2)cc1 | -1 |
| CSC1(C)CC2C(CC1N1CCOCC1)C2(C)C (centres undefined) | -1 |
| O=C(Nc1ccc(C(F)(F)F)cc1[N+](=O)[O-])C(=O)C(C(=O)c1ccc2ccccc2c1)C1OC(=O)c2ccccc21 (centres undefined) | -1 |
| O=C(c1cccs1)N(C(=S)N1CCN(c2ccccn2)CC1)C1CCCCC1 | -1 |
| CCCCNC(=O)NNC(=O)c1cc(/C=C/c2cccc([N+](=O)[O-])c2)ncn1 | -1 |
| O=C(Cc1nc2ccc(C(=O)c3ccccc3)cc2nc1O)C(=O)Nc1nc2ccccc2[nH]1 | -1 |
| CC(C)[C@](O)(C(=O)OCC1=CCN2CC[C@@H](O)[C@@H]12)[C@H](C)O | -1 |
| Cc1c2cnccc2c(C)c2c1c1ccccc1n2CC1CO1 (centres undefined) | 1 |
| Cc1ccc(C)c(NC(=O)NCc2ccc(Cl)cc2)c1 | -1 |
| O=C(O)CCC1CCc2cccc(O)c2C1=O (centres undefined) | -1 |
| c1ccc(-c2nnc(-c3nsc4ccccc34)o2)cc1 | -1 |
| Cc1cccc2c1Oc1cc(Cl)ccc1C2NC(=O)CCN1CCN(CCO)CC1 (centres undefined) | -1 |
| O=C1C(Cl)=C(Sc2nnc3c4ccccc4c4ccccc4c3n2)C(=O)c2ccccc21 | -1 |
| COc1ccc(NC(=O)C(=O)C2NC(=S)NC2=O)c(OC)c1 (centres undefined) | -1 |
| Nc1nc2cc(CNc3ccc(C(=O)NC(CCC(=O)O)C(=O)O)cc3)ccc2nc1-c1ccccc1 (centres undefined) | -1 |

---

System: CAKI-1
Experiment: NCI tumour cell line growth inhibition, 48 h
Activity calls are given as the source filed them. Cut-off read from the data, not from the text of the source: active = GI50 up to about 1.1 µM and inactive = higher.
measuredAttribute: GI50

| compound | result |
| --- | --- |
| Cc1cc(O)c2c(c1)OC1(C)CCC3C(C)(C)CCCC34COC2C14 (stereo unspecified) | 18.3 µM (inactive) |
| COc1ccc(C2c3cc4c(cc3OC(NNc3ccccc3)C2C)OCO4)cc1 (stereo unspecified) | 5.89 µM (inactive) |
| CC1CC[C@@]2(OC1)O[C@H]1C[C@H]3[C@@H]4CC[C@H]5C[C@@H](OC6OC(CO)C(OC7OC(CO)C(OC8OC(CO)C(O)C(OC9OC(C)C(OC%10OC(C)C(O)C(O)C%10O)C(O)C9O)C8OC8OCC(O)C(O)C8O)C(O)C7O)C(O)C6O)CC[C@]5(C)[C@H]4CC(=O)[C@]3(C)[C@H]1[C@@H]2C (stereo partly specified) | 15.6 µM (inactive) |
| CCN(CC)CCC(=O)c1ccc(Oc2ccccc2)cc1 | 16.7 µM (inactive) |
| CN(C)CC/C(=N\Nc1ccccc1)c1ccccc1 | 3.18 µM (inactive) |
| CCCc1nnc2sc(COc3cc(Cl)c(OCc4nn5c(CCC)nnc5s4)cc3Cl)nn12 | 38.5 µM (inactive) |
